test system: ACHN renal; experiment: NCI-60 one-dose screen, 48 h (100 = growth as untreated, 0 = no growth, -100 = all killed); details: 10 µM unless noted
About 83,000 compounds went through this panel and 20% of them were active in at least one assay; those are over-represented in the sample as a whole.
Readout label: growth (%)

[[record]]
smiles_input = "O=C(c1ccc(F)c(F)c1Nc1ccc(I)cc1F)N1CC(O)([C@@H]2CCCCN2)C1"
result_number = 18.2

[[record]]
smiles_input = "CCN(CCCOc1ccc2c(Nc3cc(CC(=O)Nc4cccc(F)c4)[nH]n3)ncnc2c1)CCOP(=O)(O)O"
result_number = 95.5

[[record]]
smiles_input = "O=C(Cc1ccccc1)Nc1nnc(NC2CCN(c3nnc(NC(=O)Cc4ccccc4)s3)CC2)s1"
result_number = 103

[[record]]
smiles_input = "COC(=O)[C@]12CC[C@@H](C)[C@H](C)[C@@H]1C1=CC[C@@H]3[C@@]4(C)C(C#N)=CC(C)=C4CC[C@@]3(C)[C@]1(C)CC2"
result_number = 79


----------
tested on: BT-549 breast; assay: NCI-60 one-dose screen, 48 h (100 = growth as untreated, 0 = no growth, -100 = all killed); settings: 10 µM unless noted
This is part of a sample that, as a whole, favours compounds with a hit. Of some 83,000 tested, about 20% had one in any assay.
Readout label: growth (%)

[[record]]
compound = "Cc1c(CN2CCN(C(=O)[C@H](C)O)CC2)sc2c(N3CCOCC3)nc(-c3cnc(N)nc3)nc12"
result_number = -3.06

[[record]]
compound = "CNC(=O)c1cc(Oc2ccc(NC(=O)Nc3ccc(Cl)c(C(F)(F)F)c3)c(F)c2)ccn1"
result_number = -31.3

[[record]]
compound = "COC(=O)[C@]12CC[C@@H](C)[C@H](C)[C@@H]1C1=CC[C@@H]3[C@@]4(C)C[C@@H](OC(=O)/C=C/c5ccccc5)[C@H](O)[C@@](C)(CO)[C@@H]4[C@H](O)C[C@@]3(C)[C@]1(C)CC2"
result_number = 34.4

[[record]]
compound = "C[C@@H]1COC(Nc2ccc3ncnc(Nc4ccc(OCc5nccs5)c(Cl)c4)c3c2)=N1"
result_number = 1.81

[[record]]
compound = "CO[C@H]1C[C@@H]2CC[C@@H](C)[C@@](O)(O2)C(=O)C(=O)N2CCCC[C@H]2C(=O)O[C@H]([C@H](C)C[C@@H]2CC[C@@H](OCCO)[C@H](OC)C2)CC(=O)[C@H](C)/C=C(\\C)[C@@H](O)[C@H](OC)C(=O)[C@H](C)C[C@H](C)\\C=C/C=C/C=C/1C"
result_number = 42.3

[[record]]
compound = "CC1CCC(n2cnc3c(Cl)ncnc32)O1 (configuration not stated)"
result_number = 89.6

[[record]]
compound = "CCCCCCCC(=O)SCC/C=C/[C@@H]1CC(=O)NCc2cccc(n2)C2=N[C@@](C)(CS2)C(=O)N[C@@H](C(C)C)C(=O)N1"
result_number = 41.4


----------
Test system: HCT-15 colon
Assay: NCI-60 one-dose screen, 48 h (100 = growth as untreated, 0 = no growth, -100 = all killed)
Settings: 10 µM unless noted
Method: Growth inhibition of the HCT-15 human tumor cell line is measured as a screen for anti-cancer activity. Cells are grown in 96 well plates and exposed to the test compound for 48 hours. Compounds are tested at a single concentration, which is 10^-5 M for most compounds. The reported endpoint is percent growth (GI% or GIPRCNT), where numbers from 0 - 100% represent growth inhibition, and numbers from -100% - 0 represent cell death. For example, a value of 40 represents 60% growth inhibition. […]
About 83,000 compounds went through this panel and 20% of them were active in at least one assay; those are over-represented in the sample as a whole.
Readout label: growth (%)

[[record]]
molecule = "Cc1cc(O)cc(-c2c(-c3ccnc(-c4cccnc4)c3)cnn2C)c1"
target_system = "HCT-15 colon"
scale_unit = "%"
result_number = 74

[[record]]
molecule = "C=C1C(=O)O[C@H]2[C@H]1CC/C(CNC(=O)c1cc3cc(OC)ccc3[nH]1)=C\\CC[C@@]1(C)O[C@@H]21"
target_system = "HCT-15 colon"
scale_unit = "%"
result_number = -78.4

[[record]]
molecule = "O=C(/C=C/c1ccc2c(c1)OCO2)c1c(O)c2ccccc2oc1=O"
target_system = "HCT-15 colon"
scale_unit = "%"
result_number = 97.1

[[record]]
molecule = "C[C@@H](N)c1ccc(C(=O)Nc2ccnc3[nH]ccc23)cc1"
target_system = "HCT-15 colon"
scale_unit = "%"
result_number = 68.3

[[record]]
molecule = "COC(=O)[C@H](Cc1ccc(O)cc1)NC(=O)[C@@H](OC)[C@@H]1Cc2cc3cc(OC4CC(OC5CC(O)C(O)C(C)O5)C(O)C(C)O4)c(C)c(O)c3c(O)c2C(=O)[C@H]1OC1CC(OC2CC(OC3CC(C)(O)C(O)C(C)O3)C(O)C(C)O2)C(O)C(C)O1 (some centres not stated)"
target_system = "HCT-15 colon"
scale_unit = "%"
result_number = 47.5

[[record]]
molecule = "C=CCCCC(=O)CCC(=O)OCC1O[C@@H](O[C@@H]2C(O)[C@@H](OC(C)=O)C(C)O[C@H]2O[C@H](CC=C)CCCCC)C(O)[C@@H](OC(=O)/C(C)=C/C)[C@@H]1OC(=O)/C=C/c1ccccc1 (some centres not stated)"
target_system = "HCT-15 colon"
scale_unit = "%"
result_number = 20.6

[[record]]
molecule = "Cn1cc(-c2cnn3c(N)c(Br)c([C@@H]4CCCNC4)nc23)cn1"
target_system = "HCT-15 colon"
scale_unit = "%"
result_number = 60.6


Every entry's value here was drawn from PubChem BioAssay (NCI).
